pIC50: −log10 of the molar value.
Across several studies, compounds have been characterized by their pIC50 on hCRTH2 receptor (Homo sapiens (Human), UniProt Q9Y5Y4); a selection follows.

Recorded results for 3 compounds are shown here.
[
  {
    "Molecule": "CN(CCc1cn(CC(=O)O)c2ccccc12)S(=O)(=O)c1ccc(F)cc1",
    "Observation Type": "pIC50",
    "Reported Value": 7.35
  },
  {
    "Molecule": "C[C@@H]1[C@H](c2ccccc2)OC(=O)N1Cc1cc(Br)ccc1Oc1cc(CC(=O)O)cc(C(F)(F)F)c1",
    "Observation Type": "pIC50",
    "Reported Value": "> 6.52"
  },
  {
    "Molecule": "CS(=O)(=O)Nc1cc(C(F)(F)F)ccc1Oc1ccc(CC(=O)O)cc1",
    "Observation Type": "pIC50",
    "Reported Value": "< 4.82"
  }
]

Next up:
Form: compound = COc1ccc(CC(=O)O)cc1Oc1ccc(NC(=O)C(C)(C)C)cc1CN1CCOC1=O ; pIC50 = > 6.52
